System: SK-MEL-3 tumor cells
Assay: Cell growth inhibition assay (CellTiter-Glo), SK-MEL-3
Format: cell-based, Human
Details: Homo sapiens, SK-MEL3
Where a name gives a salt, the structure may show the parent alone.
Below, each entry is listed alongside its reported IC50.

{"compound": "COc1ccc(Nc2nccc(-c3sc(C(C)C)nc3-c3cccc(NS(=O)(=O)c4c(F)cccc4F)c3)n2)cc1N(C)C [Example 18, trifluoroacetate]", "valueReported": "< 100 nM"}
{"compound": "CC(C)c1nc(-c2cccc(NS(=O)(=O)c3ccccc3)c2)c(-c2ccnc(Nc3ccc(N4CCOCC4)nc3)n2)s1 [Example 8, hydrochloride]", "valueReported": "< 100 nM"}
{"compound": "Cc1cc(N2CCC(N3CCCCC3)CC2)ccc1Nc1nccc(-c2sc(C(C)C)nc2-c2cccc(NS(=O)(=O)c3c(F)cccc3F)c2)n1", "valueReported": "100 to 1000 nM"}
{"compound": "COc1ccc(S(=O)(=O)Nc2cccc(-c3nc(C(C)C)sc3-c3ccnc(Nc4ccc(N5CCOCC5)nc4)n3)c2)cn1", "valueReported": "< 100 nM"}
{"compound": "CC(C)c1nc(-c2cccc(NS(=O)(=O)c3cccnc3)c2)c(-c2ccnc(Nc3ccc(N4CCOCC4)nc3)n2)s1", "valueReported": "< 100 nM"}

Consider now this further compound.
Give its IC50 value. Item: `O=S(=O)(Nc1cccc(-c2ncsc2-c2ccnc(Nc3ccc(N4CCOCC4)nc3)n2)c1)c1c(F)cccc1F` < 100 nM

---

Quick record: pIC50, EGFR (Homo sapiens, UniProt P00533).
pIC50: −log10 of the molar value. Structures can show the parent of a compound that is named as a salt.

Solved entries:
{"compound": "CC(C)c1nc(-c2cccc(NS(=O)(=O)C3CCCCC3)c2)c(-c2ccnc(Nc3ccc(N4CCOCC4)c(F)c3)n2)s1", "pIC50": "< 6.00"}
{"compound": "CC(C)(C)c1nc(-c2ccc(F)c(NS(=O)(=O)c3c(F)cccc3F)c2)c(-c2ccnc(Nc3ccc(N4CCOCC4)nc3)n2)s1 [Example 28, hydrochloride]", "pIC50": "< 6.00"}
{"compound": "CC(C)c1nc(-c2cccc(NS(=O)(=O)c3ccccc3)c2)c(-c2ccnc(Nc3ccc(F)c(N4CCN(CCS(C)(=O)=O)CC4)c3)n2)s1", "pIC50": "6.00 to 7.00"}
{"compound": "COc1ccc(S(=O)(=O)Nc2cccc(-c3nc(C(C)C)sc3-c3ccnc(Nc4ccc(N5CCOCC5)nc4)n3)c2)cn1", "pIC50": "< 6.00"}

Look up pIC50 for this compound: `CC(C)c1nc(-c2ccc(F)c(NS(=O)(=O)c3c(F)cccc3F)c2)c(-c2ccnc(Nc3ccnc(N4CCOCC4)c3)n2)s1` 6.00 to 7.00

What does the data say about its pIC50? Entry: `CN(C)c1nc(-c2ccc(F)c(NS(=O)(=O)c3c(F)cccc3F)c2)c(-c2ccnc(Nc3ccc(N4CCOCC4)nc3)n2)s1` 6.00 to 7.00

---

// reported IC50 per item
Test system: SK-MEL-3 tumor cells
Assay: Cell growth inhibition assay (CellTiter-Glo), SK-MEL-3
Format: cell-based, Human
Details: Homo sapiens, SK-MEL3

{"structureSmiles": "CC(C)c1nc(-c2cccc(NS(=O)(=O)c3c(F)cccc3F)c2)c(-c2ccnc(Nc3ccc(N4CCOCC4)c(C(=O)O)c3)n2)s1", "resultType": "IC50", "valueReported": "< 100 nM"}
{"structureSmiles": "CC(C)c1nc(-c2ccc(F)c(NS(=O)(=O)c3c(F)cccc3F)c2)c(-c2ccnc(Nc3ccc(N4CCOCC4)nc3)n2)s1", "resultType": "IC50", "valueReported": "< 100 nM"}

Now take the following compound into account.
Field: IC50 (SK-MEL-3 tumor cells). Entry: `CC(C)c1nc(-c2ccnc(NS(=O)(=O)c3c(F)cccc3F)c2)c(-c2ccnc(Nc3ccc(N4CCN(CCF)CC4)c(F)c3)n2)s1` < 100 nM

---

pIC50: −log10 of the molar value. Where a name gives a salt, the structure may show the parent alone.
Measured pIC50 (EGFR (Homo sapiens, UniProt P00533))

{"compound": "COc1ccc(Nc2nccc(-c3sc(C(C)C)nc3-c3cccc(NS(=O)(=O)c4ccccc4)c3)n2)cc1N1CCN(CCC#N)CC1", "pIC50": "> 7.00"}

Notebook entry, EGFR (Homo sapiens, UniProt P00533) assay: pIC50 of `CC(C)(C)c1nc(-c2ccc(F)c(NS(=O)(=O)c3c(F)cccc3F)c2)c(-c2ccnc(Nc3ccc(N4CCN(CCF)CC4)c(F)c3)n2)s1` = ? < 6.00

Lab note: need pIC50 for CC(C)c1nc(-c2cccc(NS(=O)(=O)c3c(F)cccc3F)c2)c(-c2ccnc(Nc3ccc(N4CCN(CCS(C)(=O)=O)CC4)c(F)c3)n2)s1 [Example 16, hydrochloride] on EGFR (Homo sapiens, UniProt P00533), anyone have it? 6.00 to 7.00

Form field - read-out: pIC50; system: EGFR (Homo sapiens, UniProt P00533); submitted item: `CC(=O)N1CCN(c2ccc(Nc3nccc(-c4sc(C(C)C)nc4-c4cccc(NS(=O)(=O)c5cccc(F)c5)c4)n3)cn2)CC1` 6.00 to 7.00

---

Tested on: SK-MEL-3 tumor cells
Test: Cell growth inhibition assay (CellTiter-Glo), SK-MEL-3
Type: cell-based, Human
Conditions: Homo sapiens, SK-MEL3
pIC50: −log10 of the molar value. Structures can show the parent of a compound that is named as a salt.
Listed below: pIC50 values for each entry.

Solved entries (count: 5):
{"molecule": "CCOc1ccc(Nc2nccc(-c3sc(N4CCCC4)nc3-c3cccc(NS(=O)(=O)c4c(F)cccc4F)c3)n2)cc1N1CCN(CCS(C)(=O)=O)CC1 [Example 109]", "pIC50": "> 7.00"}
{"molecule": "CCNc1nc(-c2cccc(NS(=O)(=O)c3c(F)cccc3F)c2)c(-c2ccnc(Nc3ccc(N4CCOCC4)nc3)n2)s1 [Example 152]", "pIC50": "> 7.00"}
{"molecule": "COc1cc(N2CCN(CCF)CC2)ccc1Nc1nccc(-c2sc(C(C)C)nc2-c2cccc(NS(=O)(=O)c3c(F)cccc3F)c2)n1 [Example 79]", "pIC50": "6.00 to 7.00"}
{"molecule": "CC(C)c1nc(-c2cccc(NS(=O)(=O)c3c(F)cccc3F)c2)c(-c2ccnc(Nc3ccc(OC4CCN(CCS(C)(=O)=O)CC4)c(F)c3)n2)s1 [Example 13, hydrochloride]", "pIC50": "> 7.00"}
{"molecule": "CC(C)c1nc(-c2cncc(NS(=O)(=O)c3c(F)cccc3F)c2)c(-c2ccnc(Nc3ccc(N4CCOCC4)nc3)n2)s1 [Example 47]", "pIC50": "> 7.00"}

Now for another entry.
Given CC(C)c1nc(-c2cccc(NS(=O)(=O)c3c(F)cccc3F)c2)c(-c2ccnc(Nc3ccc(N4CCOCC4)c(F)c3)n2)o1 [Example 57] , state its recorded pIC50. 6.00 to 7.00

---

Molecular target: B-Raf (Homo sapiens, UniProt P15056)
Sequence (P15056 whole entry): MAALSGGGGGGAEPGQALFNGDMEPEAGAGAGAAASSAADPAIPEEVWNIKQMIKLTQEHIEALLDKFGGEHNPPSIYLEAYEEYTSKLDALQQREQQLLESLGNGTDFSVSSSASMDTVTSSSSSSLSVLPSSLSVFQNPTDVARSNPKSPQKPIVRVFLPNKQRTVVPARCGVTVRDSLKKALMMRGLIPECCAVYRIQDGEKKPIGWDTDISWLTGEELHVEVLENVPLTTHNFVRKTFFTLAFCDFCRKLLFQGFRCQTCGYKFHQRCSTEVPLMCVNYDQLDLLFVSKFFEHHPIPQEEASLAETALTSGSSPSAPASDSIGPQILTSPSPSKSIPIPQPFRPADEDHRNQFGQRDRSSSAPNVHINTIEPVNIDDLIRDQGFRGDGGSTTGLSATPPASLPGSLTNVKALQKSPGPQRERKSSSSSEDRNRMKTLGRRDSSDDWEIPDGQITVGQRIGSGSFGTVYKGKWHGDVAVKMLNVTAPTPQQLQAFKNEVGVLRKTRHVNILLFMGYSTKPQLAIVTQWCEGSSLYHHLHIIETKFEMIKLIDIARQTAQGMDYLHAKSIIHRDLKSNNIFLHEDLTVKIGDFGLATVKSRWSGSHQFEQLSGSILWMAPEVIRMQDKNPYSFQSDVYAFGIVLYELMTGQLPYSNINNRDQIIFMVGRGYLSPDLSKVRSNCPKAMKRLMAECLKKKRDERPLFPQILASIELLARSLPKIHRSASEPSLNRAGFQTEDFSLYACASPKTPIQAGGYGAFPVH
Test: B-Raf Accelerated MEK ATPase assay (BRAMA), Method A or B
Assay type: biochemical
Conditions: Method B: final MEK 150 nM, single end point read
pIC50: −log10 of the molar value.
resultType: pIC50

In the examples that follow, each entry is paired with its recorded pIC50.
{"structureSmiles": "COc1cc(N2CCC(CCS(C)(=O)=O)CC2)c(C)cc1Nc1nccc(-c2sc(C(C)C)nc2-c2ccnc(NS(=O)(=O)c3c(F)cccc3F)c2)n1", "measuredOn": "B-Raf (Homo sapiens, UniProt P15056)", "valueReported": "> 7.00"}
{"structureSmiles": "COc1cc(N2CCN(CCS(C)(=O)=O)CC2)c(C)cc1Nc1nccc(-c2sc(N)nc2-c2cccc(NS(=O)(=O)c3c(F)cccc3F)c2)n1", "measuredOn": "B-Raf (Homo sapiens, UniProt P15056)", "valueReported": "6.00 to 7.00"}
{"structureSmiles": "COc1cc(N2CCN(CCS(C)(=O)=O)CC2)c(C)cc1Nc1nccc(-c2sc(N3CCOCC3)nc2-c2cccc(NS(=O)(=O)c3c(F)cccc3F)c2)n1", "measuredOn": "B-Raf (Homo sapiens, UniProt P15056)", "valueReported": "6.00 to 7.00"}
{"structureSmiles": "CC(C)c1nc(-c2cccc(NS(=O)(=O)c3cccnc3)c2)c(-c2ccnc(Nc3ccc(N4CCOCC4)nc3)n2)s1", "measuredOn": "B-Raf (Homo sapiens, UniProt P15056)", "valueReported": "> 7.00"}
{"structureSmiles": "O=S(=O)(Nc1cccc(-c2nc(N3CCOCC3)sc2-c2ccnc(Nc3ccc(N4CCOCC4)nc3)n2)c1Cl)c1c(F)cccc1F", "measuredOn": "B-Raf (Homo sapiens, UniProt P15056)", "valueReported": "> 7.00"}

State the recorded pIC50 for this entry: `Cc1[nH]c(=O)[nH]c(=O)c1S(=O)(=O)Nc1cccc(-c2nc(C(C)C)sc2-c2ccnc(Nc3ccc(N4CCOCC4)nc3)n2)c1` 6.00 to 7.00

Which measured pIC50 value corresponds to `COc1cc(N2CCN(CCS(C)(=O)=O)CC2)c(C)cc1Nc1nccc(-c2sc(C(C)C)nc2-c2cccc(NS(=O)(=O)c3cnn(C)c3)c2)n1` ? 6.00 to 7.00
